# system-under-test: panel of 255 wild-type kinases (Homo sapiens, UniProt Q9NYY3)
# Sequence (Q9NYY3 whole entry): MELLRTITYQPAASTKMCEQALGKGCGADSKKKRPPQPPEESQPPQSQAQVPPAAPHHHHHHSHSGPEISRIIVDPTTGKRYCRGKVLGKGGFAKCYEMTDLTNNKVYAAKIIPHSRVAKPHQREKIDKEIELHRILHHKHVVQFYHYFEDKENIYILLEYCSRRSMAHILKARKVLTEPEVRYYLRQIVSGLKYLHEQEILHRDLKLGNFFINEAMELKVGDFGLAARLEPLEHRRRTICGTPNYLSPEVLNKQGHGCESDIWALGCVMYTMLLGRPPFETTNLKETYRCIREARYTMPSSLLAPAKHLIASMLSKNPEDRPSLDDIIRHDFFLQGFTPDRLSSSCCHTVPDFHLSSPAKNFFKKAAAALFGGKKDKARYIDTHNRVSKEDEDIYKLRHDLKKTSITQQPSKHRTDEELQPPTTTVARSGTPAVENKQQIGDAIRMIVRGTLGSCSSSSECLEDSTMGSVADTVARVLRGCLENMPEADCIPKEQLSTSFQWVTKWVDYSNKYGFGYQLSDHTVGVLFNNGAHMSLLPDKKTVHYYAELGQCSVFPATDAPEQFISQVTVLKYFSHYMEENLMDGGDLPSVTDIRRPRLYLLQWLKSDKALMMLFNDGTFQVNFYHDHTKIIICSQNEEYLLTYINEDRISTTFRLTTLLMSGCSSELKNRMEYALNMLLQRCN
# assay: Kinase panel profiling at 1 µmol/L (MSA or IMAP), percentage inhibition
# Format: biochemical
# measurement-setup: kinase PLK2; 1 µmol/L single concentration; read-out: %-inhibition at 1 µmol/L, PLK2
property-label: inhibition at 1 µM (%)
Give a bare numeral; the unit % is implied.

CCc1nc(C(N)=O)c(Nc2ccc(N3CCC(N4CCN(C)CC4)CC3)c(OC)c2)nc1NC1CCOCC1; 4.71

The recorded inhibition at 1 µM for entry CCN1C(=O)N(c2c(F)c(OC)cc(OC)c2F)Cc2cnc3[nH]c(CN4CCOCC4)cc3c21 equals 0.757

The compound identified as Cc1nc(NC(=O)N2CCC[C@H]2C(N)=O)sc1-c1ccnc(C(C)(C)C(F)(F)F)c1 registered its inhibition at 1 µM at 10

inhibition at 1 µM in this record for CN1CCN(c2ccc(C(=O)Nc3n[nH]c4ccc(Cc5cc(F)cc(F)c5)cc34)c(NC3CCOCC3)c2)CC1 : 14
